Measured half-life at 100 µM, listed per entry.
assay: Aqueous Hydrolysis Stability Assay; assay type: physicochemical; conditions: 50 mM HEPES buffer pH 7.5; HEPES pH 7.5, room temperature; read-out: T1/2 Aq Stability

Smiles str: CC[C@H]1OC(=O)[C@H](C)[C@@H](O[C@H]2C[C@@](C)(OC)[C@@H](O)[C@H](C)O2)[C@H](C)[C@@H](O[C@@H]2O[C@H](C)C[C@H](N(C)C)[C@H]2O)[C@](C)(O)C[C@@H](C)CN(C)[C@H](C)[C@@H](OC(=O)CO)[C@]1(C)O
half-life at 100 µM: > 2 h
--
Smiles str: CC[C@H]1OC(=O)[C@H](C)[C@@H](O[C@H]2C[C@@](C)(OC)[C@@H](O)[C@H](C)O2)[C@H](C)[C@@H](O[C@@H]2O[C@H](C)C[C@H](N(C)C)[C@H]2OC(=O)CCOCCOCCOCCOCCO)[C@](C)(O)C[C@@H](C)CN(C)[C@H](C)[C@@H](O)[C@]1(C)O
half-life at 100 µM: 1.2 h
